Test system: RNAi-treated eri-1 (mg366) nematodes
Assay: RNAi screening of olfactory receptor genes: chemotaxis assay of RNAi-treated nematodes to odorants
Type: in vivo, Caenorhabditis elegans
Details: srh-18 RNAi-treated nematodes; repellent or high concentration of attractant
Recorded chemotaxis index, one value per entry.
Number only, please.

Before answering, review these 2 worked examples.
COMPOUND	TARGET_ENTITY	chemotaxis index
CC(C)CCO [High Iaa]	RNAi-treated eri-1 (mg366) nematodes	−0.78
O=Cc1ccccc1 [High Bz]	RNAi-treated eri-1 (mg366) nematodes	−0.88

Incoming: Param item = CCCCCCCCO [octanol] ; retrieve measured chemotaxis index.
Outgoing: −0.65

Incoming: Can you share its chemotaxis index? I mean this compound: CCCCCCCC(C)=O [nonanone]
Outgoing: −0.26

Incoming: Given the compound CC(=O)C(C)=O [High Da] , what is its reported chemotaxis index?
Outgoing: −0.74

----------
System: RNAi-treated eri-1 (mg366) nematodes
Experiment: RNAi screening of olfactory receptor genes: chemotaxis assay of RNAi-treated nematodes to odorants
Type: in vivo, Caenorhabditis elegans
Conditions: srh-49 RNAi-treated nematodes; low concentration of attractant
MEASUREMENT_KIND: chemotaxis index
Answer with a bare number; do not write a unit.

Solved entries:
SMILES_REPRESENTATION	TARGET_ENTITY	READOUT_NUMBER
Cc1nc(C)c(C)s1	RNAi-treated eri-1 (mg366) nematodes	0.59
c1cnccn1	RNAi-treated eri-1 (mg366) nematodes	0.52
CCC(=O)C(C)=O	RNAi-treated eri-1 (mg366) nematodes	0.60

Now for a further compound.
Incoming: Fill in: chemotaxis index of `CCC(C)=O` is ___
Outgoing: 0.80

----------
Test system: RNAi-treated eri-1 (mg366) nematodes
Assay: RNAi screening of olfactory receptor genes: chemotaxis assay of RNAi-treated nematodes to odorants
Format: in vivo, Caenorhabditis elegans
Settings: srh-39 RNAi-treated nematodes; repellent or high concentration of attractant
MEASUREMENT_KIND: chemotaxis index
// no unit string in output, number only

SMILES_REPRESENTATION	chemotaxis index
CC(C)CCO	−0.79
CCCCCCCCO	−0.50
CCCCCCCC(C)=O	−0.90
CC(=O)C(C)=O	−0.51

Now consider the entry below.
Incoming: Request body: readout chemotaxis index, system RNAi-treated eri-1 (mg366) nematodes, query `O=Cc1ccccc1` . Return the value.
Outgoing: −0.84

----------
Listed molecules paired with reported chemotaxis index
System: RNAi-treated eri-1 (mg366) nematodes
Assay: RNAi screening of olfactory receptor genes: chemotaxis assay of RNAi-treated nematodes to odorants
Assay type: in vivo, Caenorhabditis elegans
Settings: srh-36 RNAi-treated nematodes; low concentration of attractant

Incoming: Could you share which chemotaxis index value was measured for `CCC(C)=O` ?
Outgoing: 0.37

Incoming: Can you look up the measured chemotaxis index of `c1cnccn1` for me?
Outgoing: 0.53

Incoming: # chemotaxis index lookup, item `Cc1nc(C)c(C)s1`
Outgoing: 0.51

Incoming: State the recorded chemotaxis index for this entry: `CCC(=O)C(C)=O`
Outgoing: 0.26

----------
Tested on: RNAi-treated eri-1 (mg366) nematodes
Assay: RNAi screening of olfactory receptor genes: chemotaxis assay of RNAi-treated nematodes to odorants
Format: in vivo, Caenorhabditis elegans
Conditions: srh-75 RNAi-treated nematodes; repellent or high concentration of attractant
Description: The RNAi assay was carried out by performing an RNAi method involving the feeding (feeding RNAi method) of eri-1 (mg366) (19), using an Ahringer library (37). Nine adult eri-1 mutants were placed on an NGM plate containing isopropyl 1-D-1-thiogalactopyranoside (0.19 g/L), ampicillin (60 mg/L), and Escherichia coli (E. coli), and were then cultured for 4 days. […] The z score and a control value in each single test from 2SD were calculated in all days (Table 3) or every day. […]
MEASUREMENT_KIND: chemotaxis index
Answer with a bare number; do not write a unit.

# count of solved cases: 3
SMILES_REPRESENTATION	READOUT_NUMBER
CC(=O)C(C)=O	−0.42
O=Cc1ccccc1	−0.94
CCCCCCCC(C)=O	−0.86

Incoming: Reported chemotaxis index for RNAi-treated eri-1 (mg366) nematodes, given `CCCCCCCCO` ?
Outgoing: −0.59

Incoming: Enter reported chemotaxis index observed with RNAi-treated eri-1 (mg366) nematodes for `CC(C)CCO`
Outgoing: −0.50

----------
System: RNAi-treated eri-1 (mg366) nematodes
Experiment: RNAi screening of olfactory receptor genes: chemotaxis assay of RNAi-treated nematodes to odorants
Assay type: in vivo, Caenorhabditis elegans
Settings: srh-258 RNAi-treated nematodes; low concentration of attractant
Protocol: The RNAi assay was carried out by performing an RNAi method involving the feeding (feeding RNAi method) of eri-1 (mg366) (19), using an Ahringer library (37). Nine adult eri-1 mutants were placed on an NGM plate containing isopropyl 1-D-1-thiogalactopyranoside (0.19 g/L), ampicillin (60 mg/L), and Escherichia coli (E. coli), and were then cultured for 4 days. […] The z score and a control value in each single test from 2SD were calculated in all days (Table 3) or every day. […]
MEASUREMENT_KIND: chemotaxis index
Lab note: write the figure by itself, no unit.

The following compounds have reported results that may help.
SMILES_REPRESENTATION	TARGET_ENTITY	chemotaxis index
CCC(C)=O	RNAi-treated eri-1 (mg366) nematodes	0.56
O=Cc1ccccc1	RNAi-treated eri-1 (mg366) nematodes	0.40
CCC(=O)C(C)=O	RNAi-treated eri-1 (mg366) nematodes	0.35
CC(C)CCO	RNAi-treated eri-1 (mg366) nematodes	0.78
Cc1nc(C)c(C)s1	RNAi-treated eri-1 (mg366) nematodes	0.75

Now examine the next entry.
Incoming: Fill blank: measured chemotaxis index of the compound `c1cnccn1` is ____.
Outgoing: 0.44

----------
Parameter chemotaxis index: see the listing below.
System: RNAi-treated eri-1 (mg366) nematodes
Test: RNAi screening of olfactory receptor genes: chemotaxis assay of RNAi-treated nematodes to odorants
Type: in vivo, Caenorhabditis elegans
Conditions: srh-70 RNAi-treated nematodes; low concentration of attractant
Provide a numeric answer; units are not to be included.

Please review the following examples before continuing.
COMPOUND	READOUT_NUMBER
c1cnccn1 [pyrazine]	0.41
CCC(=O)C(C)=O [pentanedione]	0.25
CCC(C)=O [butanone]	0.43

Query compound follows.
Incoming: Find the recorded chemotaxis index belonging to Cc1nc(C)c(C)s1 [trimethylthiazole] and report it.
Outgoing: 0.78

----------
Test system: RNAi-treated eri-1 (mg366) nematodes
Test: RNAi screening of olfactory receptor genes: chemotaxis assay of RNAi-treated nematodes to odorants
Format: in vivo, Caenorhabditis elegans
Details: srh-40 RNAi-treated nematodes; low concentration of attractant
MEASUREMENT_KIND: chemotaxis index
Reply with just the number.

Solved entries:
SMILES_REPRESENTATION	chemotaxis index
c1cnccn1	0.51
Cc1nc(C)c(C)s1	0.73
CCC(=O)C(C)=O	0.47

# context switch: different compound, same chemotaxis index
Incoming: # query: chemotaxis index | item `CCC(C)=O` | system: RNAi-treated eri-1 (mg366) nematodes
Outgoing: 0.94

----------
Test system: RNAi-treated eri-1 (mg366) nematodes
Assay: RNAi screening of olfactory receptor genes: chemotaxis assay of RNAi-treated nematodes to odorants
Type: in vivo, Caenorhabditis elegans
Conditions: srh-99 RNAi-treated nematodes; repellent or high concentration of attractant
Label key: t means chemotaxis index under -0.7; f means chemotaxis index of -0.7 or more.

MOLECULE	ASSIGNED_CLASS
CC(=O)C(C)=O [High Da]	f
O=Cc1ccccc1 [High Bz]	t
CC(C)CCO [High Iaa]	f
CCCCCCCC(C)=O [nonanone]	t

Could you now consider this next molecule?
Incoming: chemotaxis index under -0.7? Item: CCCCCCCCO [octanol]
Outgoing: f

----------
The following compounds are shown together with reported chemotaxis index values.
Tested on: RNAi-treated eri-1 (mg366) nematodes
Experiment: RNAi screening of olfactory receptor genes: chemotaxis assay of RNAi-treated nematodes to odorants
Assay type: in vivo, Caenorhabditis elegans
Settings: srh-16 RNAi-treated nematodes; repellent or high concentration of attractant
Would you mind answering with just the numeric figure?

Below, 4 compounds whose answers are already recorded.
SMILES_REPRESENTATION	READOUT_NUMBER
CC(=O)C(C)=O	−0.65
CC(C)CCO	−0.74
CCCCCCCC(C)=O	−0.63
O=Cc1ccccc1	−0.88

Incoming: Look up chemotaxis index: `CCCCCCCCO`
Outgoing: −0.89

----------
Test system: RNAi-treated eri-1 (mg366) nematodes
Experiment: RNAi screening of olfactory receptor genes: chemotaxis assay of RNAi-treated nematodes to odorants
Format: in vivo, Caenorhabditis elegans
Conditions: srh-109 RNAi-treated nematodes; low concentration of attractant
Measured chemotaxis index values are reported for all entries that follow.
# output: bare number, no unit

Some compounds with known chemotaxis index results, for comparison:
COMPOUND	MEASUREMENT_KIND	READOUT_NUMBER
CCC(C)=O [butanone]	chemotaxis index	0.89
CCC(=O)C(C)=O [pentanedione]	chemotaxis index	0.65
Cc1nc(C)c(C)s1 [trimethylthiazole]	chemotaxis index	0.76

Incoming: Query (compound): c1cnccn1 [pyrazine] ; field requested: chemotaxis index
Outgoing: 0.32
